Values were extracted from patent US4068074A.

System: Shigella sonnei II 37148
Measurement Protocol: MIC against bacteria (Table I), strain (12)
Type: cell-based
Condition Description: II37148; (12) Shigella sonnei II 37148; read-out: MIC
Listing of entries alongside the reported MIC.
Your answer should be a number followed by the unit of measure.

# get_value(readout= MIC, system= Shigella sonnei II 37148) for O=C(O)CCc1nnc(SCC2=C(C(=O)O)N3C(=O)[C@@H](NC(=O)[C@H](NC(=O)c4cnccc4O)c4ccccc4)[C@H]3SC2)s1 3.13 µg/mL

Query MIC on Shigella sonnei II 37148 for CC(C)(Sc1nnc(SCC2=C(C(=O)O)N3C(=O)[C@@H](NC(=O)[C@H](NC(=O)c4cnccc4O)c4ccccc4)[C@H]3SC2)s1)C(=O)O 3.13 µg/mL

// fetch Shigella sonnei II 37148 MIC for O=C(O)Cc1nnc(SCC2=C(C(=O)O)N3C(=O)[C@@H](NC(=O)[C@H](NC(=O)c4cnccc4O)c4ccccc4)[C@H]3SC2)s1 6.25 µg/mL

====

Test system: Staphylococcus Onuma
Measurement Protocol: MIC against bacteria (Table I), strain (18)
Format: cell-based
Condition Description: Staphylococcus
Description: Now, for illustrating the excellent pharmacological effects of the compounds of this invention, the values of MIC (γ/ml.) of the compounds against various bacteria are shown in Table 1, in which the compounds of this invention used are shown by example numbers. (18) Staphylococcus Onuma
Quantity: MIC (µg/mL)
Give just the number in µg/mL; leave the unit off.

Past entries and their recorded results:
INSERT INTO results (compound, meas_value) VALUES
  ('O=C(O)CCC(=O)Nc1nnc(SCC2=C(C(=O)O)N3C(=O)[C@@H](NC(=O)[C@H](NC(=O)c4csccc4=O)c4ccccc4)[C@H]3SC2)s1', 6.25),
  ('O=C(O)C1=C(CSc2nnc(C(=O)O)s2)CS[C@@H]2[C@H](NC(=O)[C@H](NC(=O)c3cnccc3O)c3ccccc3)C(=O)N12', 6.25),
  ('CC1=C(C(=O)O)N2C(=O)[C@@H](NC(=O)[C@H](N)c3ccccc3)[C@H]2SC1 [Cephalexin, reference compound]', 12.5),
  ('Cc1ncc(C(=O)N[C@@H](C(=O)N[C@@H]2C(=O)N3C(C(=O)O)=C(CSc4nnc(SCC(=O)O)s4)CS[C@H]23)c2ccccc2)c(O)n1', 12.5),
  ('O=C(O)Cc1nnc(SCC2=C(C(=O)O)N3C(=O)[C@@H](NC(=O)[C@H](NC(=O)c4cnccc4O)c4ccccc4)[C@H]3SC2)s1', 6.25);

// lookup MIC | system=Staphylococcus Onuma | key= Cc1nc(SCC(=O)O)cc(SCC2=C(C(=O)O)N3C(=O)[C@@H](NC(=O)[C@H](NC(=O)c4cnccc4O)c4ccccc4)[C@H]3SC2)n1 6.25

What measured MIC is associated with Cc1nnc(SCC2=C(C(=O)O)N3C(=O)[C@@H](NC(=O)Cn4cnnn4)[C@H]3SC2)s1 [Cephazolin, reference compound] on Staphylococcus Onuma? 1.56

Write down the reported MIC of O=C(O)CSc1cc(SCC2=C(C(=O)O)N3C(=O)[C@@H](NC(=O)[C@H](NC(=O)c4cnccc4O)c4ccccc4)[C@H]3SC2)ncn1 , test system: Staphylococcus Onuma. 6.25

====

MIC values for the compounds below.
System: Klebsiella pneumoniae ATCC 10031
Measurement Protocol: MIC against bacteria (Table I), strain (8)
Format: cell-based
Condition Description: Klebsiella pneumoniae, ATCC10031
Source text: Now, for illustrating the excellent pharmacological effects of the compounds of this invention, the values of MIC (γ/ml.) of the compounds against various bacteria are shown in Table 1, in which the compounds of this invention used are shown by example numbers. (8) Klebsiella pneumoniae ATCC 10031
Form entry: value (µg/mL) — number only.

INSERT INTO results (compound, measured_target, meas_value) VALUES
  ('O=C(O)CSc1nsc(SCC2=C(C(=O)O)N3C(=O)[C@@H](NC(=O)[C@H](NC(=O)c4cnccc4O)c4ccccc4)[C@H]3SC2)n1 [Example 13]', 'Klebsiella pneumoniae ATCC 10031', 3.13),
  ('Cc1nc(SCC(=O)O)cc(SCC2=C(C(=O)O)N3C(=O)[C@@H](NC(=O)[C@H](NC(=O)c4cnccc4O)c4ccccc4)[C@H]3SC2)n1 [Example 17]', 'Klebsiella pneumoniae ATCC 10031', 6.25),
  ('Cc1nnc(SCC2=C(C(=O)O)N3C(=O)[C@@H](NC(=O)Cn4cnnn4)[C@H]3SC2)s1 [Cephazolin, reference compound]', 'Klebsiella pneumoniae ATCC 10031', 1.56),
  ('O=C(O)CCC(=O)Nc1nnc(SCC2=C(C(=O)O)N3C(=O)[C@@H](NC(=O)[C@H](NC(=O)c4csccc4=O)c4ccccc4)[C@H]3SC2)s1 [Example 1]', 'Klebsiella pneumoniae ATCC 10031', 6.25),
  ('O=C(O)Cc1nnc(SCC2=C(C(=O)O)N3C(=O)[C@@H](NC(=O)[C@H](NC(=O)c4cnccc4O)c4ccccc4)[C@H]3SC2)s1 [Example 25]', 'Klebsiella pneumoniae ATCC 10031', 6.25);

Entry under review: CC(=O)OCC1=C(C(=O)O)N2C(=O)[C@@H](NC(=O)Cc3cccs3)[C@H]2SC1 [Cephalotin, reference compound] . Reported MIC? 0.78

====

Attribute: MIC
Test system: Proteus mirabilis IXM OM-19
Measurement Protocol: MIC against bacteria (Table I), strain (3)
Type: cell-based
Condition Description: IXMOM19; (3) Proteus mirabilis IXM OM-19; read-out: MIC
Your answer should be a plain number; it is taken to be in µg/mL.

Please review the entries below; each comes with its answer.
INSERT INTO measurements (structure_as_smiles, measured_target, meas_value) VALUES
  ('O=C(O)C1=C(CSc2nnc(C(=O)O)s2)CS[C@@H]2[C@H](NC(=O)[C@H](NC(=O)c3cnccc3O)c3ccccc3)C(=O)N12', 'Proteus mirabilis IXM OM-19', 0.56),
  ('Nc1nc(SCC(=O)O)cc(SCC2=C(C(=O)O)N3C(=O)[C@@H](NC(=O)[C@H](NC(=O)c4cnccc4O)c4ccccc4)[C@H]3SC2)n1', 'Proteus mirabilis IXM OM-19', 0.39);

# lookup: MIC of O=C(O)Cn1nc(SCC2=C(C(=O)O)N3C(=O)[C@@H](NC(=O)[C@H](NC(=O)c4cnccc4O)c4ccccc4)[C@H]3SC2)ccc1=O 0.78

====

System: Staphylococcus Shimanishi
Measurement Protocol: MIC against bacteria (Table I), strain (17)
Type: cell-based
Condition Description: Staphylococcus
Quantity: MIC (µg/mL)
Please give a number only; it is taken to be in µg/mL.

INSERT INTO assay_data (molecule, measured_target, unit_label, meas_value) VALUES
  ('O=C(O)CSc1nnc(SCC2=C(C(=O)O)N3C(=O)[C@@H](NC(=O)[C@H](NC(=O)c4cnccc4O)c4ccccc4)[C@H]3SC2)s1 [Example 4]', 'Staphylococcus Shimanishi', 'µg/mL', 3.13),
  ('Nn1c(SCC(=O)O)nnc1SCC1=C(C(=O)O)N2C(=O)[C@@H](NC(=O)[C@H](NC(=O)c3cnccc3O)c3ccccc3)[C@H]2SC1 [Example 30]', 'Staphylococcus Shimanishi', 'µg/mL', 12.5),
  ('O=C(O)CCSc1nnc(SCC2=C(C(=O)O)N3C(=O)[C@@H](NC(=O)[C@H](NC(=O)c4cnccc4O)c4ccccc4)[C@H]3SC2)s1 [Example 5]', 'Staphylococcus Shimanishi', 'µg/mL', 6.25),
  ('CC1=C(C(=O)O)N2C(=O)[C@@H](NC(=O)[C@H](N)c3ccccc3)[C@H]2SC1 [Cephalexin, reference compound]', 'Staphylococcus Shimanishi', 'µg/mL', 6.25),
  ('COc1cc(C)ncc1C(=O)N[C@@H](C(=O)N[C@@H]1C(=O)N2C(C(=O)O)=C(CSc3nnc(SCC(=O)O)s3)CS[C@H]12)c1ccccc1 [Example 37]', 'Staphylococcus Shimanishi', 'µg/mL', 6.25),
  ('Cc1ncc(C(=O)N[C@@H](C(=O)N[C@@H]2C(=O)N3C(C(=O)O)=C(CSc4nnc(SCC(=O)O)s4)CS[C@H]23)c2ccccc2)c(O)n1 [Example 20]', 'Staphylococcus Shimanishi', 'µg/mL', 12.5);

Value lookup for MIC; key = Cc1nc(SCC(=O)O)cc(SCC2=C(C(=O)O)N3C(=O)[C@@H](NC(=O)[C@H](NC(=O)c4cnccc4O)c4ccccc4)[C@H]3SC2)n1 [Example 17] 6.25

Name the recorded MIC for O=C(O)CSc1cc(SCC2=C(C(=O)O)N3C(=O)[C@@H](NC(=O)[C@H](NC(=O)c4cnccc4O)c4ccccc4)[C@H]3SC2)ncn1 [Example 16] . 6.25

Need MIC of CC(=O)OCC1=C(C(=O)O)N2C(=O)[C@@H](NC(=O)Cc3cccs3)[C@H]2SC1 [Cephalotin, reference compound] , thanks. 0.39

I would be grateful if you could share the reported MIC for COc1ccncc1C(=O)N[C@@H](C(=O)N[C@@H]1C(=O)N2C(C(=O)O)=C(CSc3nnc(SCC(=O)O)s3)CS[C@H]12)c1ccccc1 [Example 26] . 6.25

Give its MIC value. Item: O=C(O)CSc1nnc(SCC2=C(C(=O)O)N3C(=O)[C@@H](NC(=O)[C@H](NC(=O)c4csccc4=O)c4ccc(O)cc4)[C@H]3SC2)s1 [Example 31] 3.13

Fill blank: measured MIC of the molecule O=C(O)Cc1nnc(SCC2=C(C(=O)O)N3C(=O)[C@@H](NC(=O)[C@H](NC(=O)c4csccc4=O)c4ccc(O)cc4)[C@H]3SC2)s1 [Example 32] is ____. 3.13

// returns reported MIC for input CSc1ccc2c(=O)c(C(=O)N[C@@H](C(=O)N[C@@H]3C(=O)N4C(C(=O)O)=C(CSc5nnc(SCC(=O)O)s5)CS[C@H]34)c3ccccc3)c[nH]c2c1 [Example 12] 3.13
